# Tested on: UO-31
# PROTOCOL_DETAILS: NCI tumour cell line growth inhibition, 48 h
Active and inactive are the calls of the source. No stated cut-off is given here; in the data, active = GI50 up to about 1.1 µM and inactive = higher. Numbered stars: 1 amine (or outer) side, 2 acyl side, 3 side chain; on linkers, the order of the positions; unused ones are H or OH. Square brackets hold non-standard residues; d marks the D form. Peptide text beside a SMILES is read from it. X55 = CC[C@H](C)[C@H](OC(=O)[C@@H](C)[C@@H](CC)N[*:1])C(=O)[*:2]; X31 = C[C@H](N[*:1])C(=O)C(C)(C)C(=O)[*:2]; NMeY = CN[C@@H](Cc1ccc(O)cc1)C(=O)O; NMeL = CN[C@@H](CC(C)C)C(=O)O; NMeV = CN[C@H](C(=O)O)C(C)C
Outcome codes: active, inactive

COMPOUND | SYSTEM_UNDER_TEST | CATEGORY
O=C(Nc1sccc1S(=O)(=O)c1ccccc1)c1ccccc1 | UO-31 | inactive
O=[N+]([O-])c1ccc2c(c1)Sc1ccccc1N2CCCCCl | UO-31 | inactive
O=C1c2ccccc2C(=O)C12CCc1ccccc12 | UO-31 | inactive
CC[C@H](C)[C@@H]1OC(=O)[C@@H](C)[C@@H](CC)NC(=O)[C@H](C)NC(=O)C(C)(C)C(=O)[C@H](C)NC(=O)[C@H](Cc2ccc(OC)cc2)N(C)C(=O)[C@H](C(C)C)N(C)C(=O)CNC(=O)[C@H](CC(C)C)N(C)C(=O)CNC1=O [DOLASTATIN 11] (cyclo(A[X55]G[NMeL]G[NMeV][NMeY](Me)[X31])) | UO-31 | active
C=CCOCn1ccc(=O)[nH]c1=O | UO-31 | inactive
COc1ccc(-c2nc(Nc3ccccc3)sc2Cc2sc(Nc3ccccc3)nc2-c2ccc(OC)cc2)cc1 | UO-31 | inactive
CCOC(=O)C1=C(O)C(=O)c2c(OC)ccc(OC)c2C1=O | UO-31 | inactive
CCOC(=O)Cc1csc(N/C=C2/C(=O)Oc3ccccc3C2=O)n1 | UO-31 | inactive

Ref: ChEMBL document CHEMBL1201862
